Target: T1, HLA-B*07:02 (human)
T1 construct: also called peptide-receptive MHC molecules
Assay: UV-exchange b2m ELISA; exchange-yield grade
Description: Candidate peptides for T cell based therapies according to the present invention were further tested for their MHC binding capacity (affinity). The individual peptide-MHC complexes were produced by UV-ligand exchange, where a UV-sensitive peptide is cleaved upon UV-irradiation, and exchanged with the peptide of interest as analyzed. Only peptide candidates that can effectively bind and stabilize the peptide-receptive MHC molecules prevent dissociation of the MHC complexes. […]
measure: peptide exchange yield

[[record]]
binder = "FPFNPLDF"
measure = "peptide exchange yield"
assay_result = "20 to 50%"

[[record]]
binder = "APAAWLRSA"
measure = "peptide exchange yield"
assay_result = "20 to 50%"

[[record]]
binder = "KPGTSYRVTL"
measure = "peptide exchange yield"
assay_result = "50 to 75%"

[[record]]
binder = "TPSVVTEGF"
measure = "peptide exchange yield"
assay_result = "20 to 50%"

[[record]]
binder = "IPRNPPPTLL"
measure = "peptide exchange yield"
assay_result = "50 to 75%"

[[record]]
binder = "VPNQSSESL"
measure = "peptide exchange yield"
assay_result = "50 to 75%"

[[record]]
binder = "RPRSPAGQVAAA"
measure = "peptide exchange yield"
assay_result = "50 to 75%"

[[record]]
binder = "FPDNQRPAL"
measure = "peptide exchange yield"
assay_result = "50 to 75%"

[[record]]
binder = "HVTKTQATF"
measure = "peptide exchange yield"
assay_result = "20 to 50%"

[[record]]
binder = "PGGTRQSL"
measure = "peptide exchange yield"
assay_result = "10 to 20%"

[[record]]
binder = "FPAMTESGGMIL"
measure = "peptide exchange yield"
assay_result = "50 to 75%"

[[record]]
binder = "LPSDSHFKITF"
measure = "peptide exchange yield"
assay_result = "50 to 75%"

[[record]]
binder = "LPRPGAVL"
measure = "peptide exchange yield"
assay_result = "50 to 75%"

[[record]]
binder = "RPIVPGPLL"
measure = "peptide exchange yield"
assay_result = "50 to 75%"

[[record]]
binder = "NVLTSTPAF"
measure = "peptide exchange yield"
assay_result = "20 to 50%"

[[record]]
binder = "TPGLRETSI"
measure = "peptide exchange yield"
assay_result = "20 to 50%"

